These entries and their values trace back to paper PMC5573416.

Assay: physchem
Conditions: pH 7.4, aqueous buffer, kinetic from dmso stock
Recorded Metric: solubility (µM)

                                   molecule  prefix_operator  recorded_measurement
0  CNS(=O)(=O)c1ccc2c(c1)CCN2C(=O)c1ccccc1F [Compound 2]                =                   140
1  O=S1(=O)C[C@H](O)[C@@H](N2CCN(c3ccccc3Cl)CC2)C1 [Compound 1]                >                   464
2  CNS(=O)(=O)c1ccc2c(c1)CCN2C(=O)c1ccc(C)s1 [Compound 3]                =                    19

====

# Papp annotations
Test: in vitro
Conditions: PAMPA
Recorded Metric: Papp (nm/s)

>>> print(df.to_string())
                                   molecule  recorded_metric  recorded_measurement
0  CNS(=O)(=O)c1ccc2c(c1)CCN2C(=O)c1ccccc1F [Compound 2]             Papp                   260
1  O=S1(=O)C[C@H](O)[C@@H](N2CCN(c3ccccc3Cl)CC2)C1 [Compound 1]             Papp                   380
2  CNS(=O)(=O)c1ccc2c(c1)CCN2C(=O)c1ccc(C)s1 [Compound 3]             Papp                   427
